system: SK-MEL-28 melanoma; assay: NCI tumour cell line growth inhibition, 48 h
readout.label: TGI

Answered examples (4):
- molecule: "CCC1(OC(=O)CNC)C(=O)OCc2c1cc1n(c2=O)Cc2cc3ccccc3nc2-1 (stereo not given)"
  tgt: "SK-MEL-28 melanoma"
  observed.value: "2.7 µM"
- molecule: "N#CC(c1ccccc1)N(CCc1ccccc1)C(=O)c1ccc(C(=O)N(CCc2ccccc2)C(C#N)c2ccccc2)cc1 (stereo not given)"
  tgt: "SK-MEL-28 melanoma"
  observed.value: "51.3 µM"
- molecule: "COc1ccc(C(=O)N2CCN(c3ccc4c(c3)OCC(=O)N4)CC2)cc1OC"
  tgt: "SK-MEL-28 melanoma"
  observed.value: "> 100 µM"
- molecule: "N#CCCN(C1=NN(C(=O)CC(=O)Nc2ccc(Cl)cc2)C(c2ccccc2)C1)c1ccc(Cl)cc1 (stereo not given)"
  tgt: "SK-MEL-28 melanoma"
  observed.value: "> 100 µM"

Would you kindly look at the next entry?
[ask] Suppose we examine the molecule Fc1ccc(Oc2nc3ccccc3nc2-c2ccccc2)cc1 ; what TGI value has been reported?
[reply] > 100 µM

---

test system: SNB-75 CNS; test: NCI tumour cell line growth inhibition, 48 h; in the data active means GI50 below about 0.43 µM; inactive means the rest
Just give me one of these, please: 1 for active, -1 for inactive

- compound: "Nc1nc(=S)c2ncn(C3OC(CO)C(O)C3O)c2[nH]1 (centres undefined)"
  class.assignment: -1

[ask] In this assay, the call recorded for Cc1cc2c(C(=O)NCC#N)cccc2n1-c1nc2c(c(NCc3ccccc3)n1)CCCC2 was what?
[reply] 1

[ask] In this assay, the call recorded for CCC1=C[C@@H]2CN(C1)Cc1c([nH]c3ccccc13)[C@@](C(=O)OC)(c1cc3c(cc1OC)N(C)[C@H]1[C@@](O)(C(=O)OC)[C@H](OC(C)=O)[C@]4(CC)C=CCN5CC[C@]31[C@@H]54)C2 was what?
[reply] 1

[ask] In this assay, the call recorded for COc1ccc(CN2C(=O)/C(=C\C(=O)c3ccc(OCCN4CCCC4)cc3)c3ccccc32)cc1 was what?
[reply] -1

---

system: SNB-19 CNS; test: NCI tumour cell line growth inhibition, 48 h
readout.label: TGI

Answered examples (3):
- compound: "CNCCCn1c2c(c3ccc(Cl)cc3c1=O)C(=O)c1cc(OC)cnc1-2"
  TGI: "2.26 µM"
- compound: "CC(=O)OC1CC2C(C)(C)CCC[C@]2(C)C2=C1C(O)=C(C(C)C)C(=O)C2=O (stereo not given in full)"
  TGI: "> 46 µM"
- compound: "Cn1nc(-c2ccccc2)c2c(/C=C/c3ccc(Cl)cc3)onc2c1=O"
  TGI: "> 100 µM"

[ask] So what TGI did O=C(O)CCNc1ncc2c(n1)-c1ccccc1OC2 get with SNB-19 CNS?
[reply] > 100 µM

[ask] So what TGI did Cc1cccc2c(N)c3cccc(C(=O)NCC[N+](C)(C)Cc4ccc(S(C)(=O)=O)cc4)c3nc12 get with SNB-19 CNS?
[reply] > 100 µM

---

test system: BT-549 breast; assay: NCI tumour cell line growth inhibition, 48 h
// reported TGI for each item listed
Reply with just the number (in µM).

Answered examples (2):
- compound: "O=C(CN1CCN(CCN2C(=O)c3cccc4cccc(c34)C2=O)CC1)Nc1ccc2ncsc2c1"
  TGI / µM: 30.1
- compound: "O=C(CC(Cc1ccccc1)c1ccc(Oc2ccccc2)cc1)Nc1cccc(Cl)c1 (stereo not given)"
  TGI / µM: 75.9

Would you kindly look at the next entry?
[ask] Suppose we examine the compound CCNC(=O)Oc1ccc(/C(=C(\C)c2ccc(Cl)cc2)c2ccc(OCCN(CC)CC)cc2)cc1 ; what TGI value has been reported?
[reply] 18.5

---

// reported TGI for each item listed
test system: COLO 205 colon; assay: NCI tumour cell line growth inhibition, 48 h

Answered examples (4):
- compound: "CN(C)CCOc1ccc2[nH]c(C(=O)N3CC(CCl)c4c3cc([N+](=O)[O-])c3ccccc43)cc2c1 (stereo not given)"
  tgt: "COLO 205 colon"
  TGI: "> 100 µM"
- compound: "OCC1C2CCC3(OCCO3)C12 (stereo not given)"
  tgt: "COLO 205 colon"
  TGI: "> 100 µM"
- compound: "COc1ccc(C2CC(c3ccc(NS(=O)(=O)c4cc([N+](=O)[O-])ccc4C)cc3)=NN2S(=O)(=O)c2cc([N+](=O)[O-])ccc2C)cc1 (stereo not given)"
  tgt: "COLO 205 colon"
  TGI: "> 100 µM"
- compound: "CCSc1nc(NC(C)c2ccccc2)c2cnn(CO)c2n1 (stereo not given)"
  tgt: "COLO 205 colon"
  TGI: "> 100 µM"

Would you kindly look at the next entry?
[ask] So what TGI did C=CCOC1CC(n2cnc3c(N)ncnc32)OC1CO (stereo not given) get with COLO 205 colon?
[reply] > 100 µM

---

// reported TGI for each item listed
tested on: OVCAR-8 ovarian; assay: NCI tumour cell line growth inhibition, 48 h
Reply with just the number (in µM).

Answered examples (4):
- compound: "N#CC(C(=O)/C(=N/NC(=O)c1ccccc1O)C(C#N)c1ccc(Br)cc1)c1ccc(Br)cc1 (stereo not drawn)"
  tgt: "OVCAR-8 ovarian"
  TGI (µM): 19.8
- compound: "O=C1c2cccc([N+](=O)[O-])c2C(=O)c2nccnc21"
  tgt: "OVCAR-8 ovarian"
  TGI (µM): 7.09
- compound: "O=C(Nc1ccc(Oc2ccc(NC(=O)Nc3ccccc3Cl)cc2)cc1)Nc1ccccc1Cl"
  tgt: "OVCAR-8 ovarian"
  TGI (µM): 23.6
- compound: "CCC1=C[C@@H]2CN(C1)Cc1c([nH]c3ccccc13)[C@@](C(=O)OC)(c1cc3c(cc1OC)N(C)[C@H]1[C@@](O)(C(=O)OC)[C@H](OC(C)=O)[C@]4(CC)C=CCN5CC[C@]31[C@@H]54)C2"
  tgt: "OVCAR-8 ovarian"
  TGI (µM): 25.6

[ask] So what TGI did c1ccc(COCC[P+](c2ccccc2)(c2ccccc2)c2ccccc2)cc1 get with OVCAR-8 ovarian?
[reply] 10.8

---

test system: NCI/ADR-RES ovarian; test: NCI tumour cell line growth inhibition, 48 h
readout.label: TGI

Answered examples (5):
- compound: "O=c1c2ccccc2nc2n1CCc1c-2[nH]c2cc3c(cc12)OCO3"
  tgt: "NCI/ADR-RES ovarian"
  TGI: "> 25 µM"
- compound: "COC1=CC(c2ccc[nH]2)=N/C1=C\\c1[nH]c(C)c(C(=O)Oc2ccccc2)c1C"
  tgt: "NCI/ADR-RES ovarian"
  TGI: "1.46 µM"
- compound: "CN1C(=O)N/C(=C\\c2ccc(S(=O)(=O)N/N=C/c3ccccc3)cc2)C1=O"
  tgt: "NCI/ADR-RES ovarian"
  TGI: "> 100 µM"
- compound: "COc1ccc(-c2[nH]c(-c3ccc(OC)cc3)c(-c3ccccn3)c2-c2ccccn2)cc1"
  tgt: "NCI/ADR-RES ovarian"
  TGI: "> 100 µM"
- compound: "CCSc1nc(NC(C)c2ccccc2)c2cnn(CO)c2n1 (stereo not drawn)"
  tgt: "NCI/ADR-RES ovarian"
  TGI: "> 100 µM"

[ask] So what TGI did CCCCC(O)(c1ccccc1)C(O)(c1ccccc1)c1c(F)c(F)c(F)c(F)c1F (stereo not drawn) get with NCI/ADR-RES ovarian?
[reply] 49.1 µM

[ask] So what TGI did CC1NC(C(=O)O)Cc2cc(O)c(O)cc21 (stereo not drawn) get with NCI/ADR-RES ovarian?
[reply] > 100 µM

[ask] So what TGI did Cc1cc(I)cc(CNCCN2CCOCC2)c1O get with NCI/ADR-RES ovarian?
[reply] > 100 µM

[ask] So what TGI did CC1(c2nc3ccccc3[nH]2)CCC(C#N)C(C)(C)O1 (stereo not drawn) get with NCI/ADR-RES ovarian?
[reply] > 100 µM

[ask] So what TGI did O=[N+]([O-])c1cnc(N(CCO)CCO)s1 get with NCI/ADR-RES ovarian?
[reply] > 100 µM

[ask] So what TGI did CC1(CO)C(O)CCC2(C)C1C(O)CC1CC3CC12CCC3(O)CO (stereo not drawn) get with NCI/ADR-RES ovarian?
[reply] > 225 µM

[ask] So what TGI did COC(O)C(=O)c1c2c(cc3c1CCC3)CCC2 (stereo not drawn) get with NCI/ADR-RES ovarian?
[reply] > 100 µM

[ask] So what TGI did COC(C)(C)[C@@H]1CCCN1C1=C(C)C(=O)OC1 get with NCI/ADR-RES ovarian?
[reply] > 100 µM

[ask] So what TGI did COc1ccc2nc3cc([N+](=O)[O-])ccc3c(NNc3ccc([N+](=O)[O-])cc3)c2c1 get with NCI/ADR-RES ovarian?
[reply] > 100 µM

[ask] So what TGI did CCC(=O)N(c1ccccc1)C(C)CN1CCC(O)(c2cccc(C(F)(F)F)c2)CC1 (stereo not drawn) get with NCI/ADR-RES ovarian?
[reply] 53.4 µM

[ask] So what TGI did O=C(/C=C\c1ccsc1)c1ccccc1 get with NCI/ADR-RES ovarian?
[reply] 32.4 µM

[ask] So what TGI did CN1CN(c2ccccc2)C2(CCN(C3Nc4ccccc4O3)CC2)C1=O (stereo not drawn) get with NCI/ADR-RES ovarian?
[reply] 56.1 µM

[ask] So what TGI did O=C(COc1cccc(/C=C2\COc3ccccc3C2=O)c1)c1ccccc1 get with NCI/ADR-RES ovarian?
[reply] 11.8 µM

[ask] So what TGI did CN(CC(=O)O)CC(=O)O get with NCI/ADR-RES ovarian?
[reply] > 100 µM

[ask] So what TGI did CCCCCCCCCC(=O)NCCc1c[nH]c2ccc(OC)cc12 get with NCI/ADR-RES ovarian?
[reply] 38.4 µM

Source of measurements: PubChem BioAssay (NCI)
